Catalogue of PBM binding z-score values
# Test system: VDR homodimer (NR concentration 270 nM)
# assayRemarks: PBM binding z-score (relative to random genomic background probes); higher = stronger binding; sequences stand for … in GC…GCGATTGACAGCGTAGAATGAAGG

I am curious: what PBM binding z-score value has been reported for "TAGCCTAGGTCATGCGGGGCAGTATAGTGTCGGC" ?
1.5

Next sequence up: "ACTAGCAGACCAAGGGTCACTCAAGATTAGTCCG"
1.2

Next sequence up: "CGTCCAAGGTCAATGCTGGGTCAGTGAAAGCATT"
2.62

Next sequence up: "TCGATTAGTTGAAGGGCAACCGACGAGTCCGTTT"
0.943

Further cases:
I am curious: what PBM binding z-score value has been reported for "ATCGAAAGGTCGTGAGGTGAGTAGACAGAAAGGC" ?
0.659

Next sequence up: "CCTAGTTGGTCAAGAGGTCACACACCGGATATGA"
3.07

Next sequence up: "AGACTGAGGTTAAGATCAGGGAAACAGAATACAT"
0.3

Next sequence up: "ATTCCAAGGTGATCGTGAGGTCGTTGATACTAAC"
3.2

Next sequence up: "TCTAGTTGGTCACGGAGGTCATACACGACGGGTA"
3.53
